Assay: Protein binding test (dialysis), rat
Format: in vitro ADME
Settings: rat plasma, 1 μM
fraction unbound at 5 h, 1 μM below 0.02 gives n; fraction unbound at 5 h, 1 μM at or above it gives y.

Take a look at these entries with their results.
CP(C)(=O)c1cc2c(Nc3ccc4scnc4c3)ccnc2cc1OC1COC1; y
CP(C)(=O)c1cc2c(Nc3ccc4scnc4c3)ccnc2cc1OC(F)F; n
CP(C)(=O)c1cc2c(Nc3ccc4scnc4c3)ccnc2cc1O[C@@H]1CCOC1; y
COc1cc2nccc(Nc3ccc4scnc4c3)c2cc1P(C)(C)=O; n
CP(C)(=O)c1cc2c(Nc3ccc4scnc4c3)ccnc2cc1OC(F)(F)F; n

Let's switch to this compound now.
Task: Kindly determine if fraction unbound at 5 h, 1 μM recorded for CP(C)(=O)c1cc2c(Nc3ccc4scnc4c3)ccnc2cc1O[C@H]1CCOC1 is above or exactly 0.02.
Output: y
